Tested on: L1210 leukemia ip in BDF1 mice, survival T/C
Assay: NCI In Vivo Anticancer Drug Screen. Data for tumor model L1210 Leukemia (intraperitoneal) in B6D2F1 (BDF1) mice
Settings: endpoint: mean survival time; dose: 25.0 mg/kg/injection; schedule: Q01DX009 (ip); vehicle: saline with Tween-80; higher = longer survival
Inconclusive results and toxic doses are left out.
In this section, each of the molecules is paired with its reported T/C.

Worked set:
MOLECULE | T/C
O=C(N/N=C\c1ccc(Cl)cc1Cl)c1ccc(F)cc1 | 96 % of control
FC(F)(F)c1cccc(-c2nc3nc(Cl)c(Cl)nc3[nH]2)c1 | 98 % of control
O=C(CBr)c1ccc(I)cc1 | 100 % of control
CS(=O)(=O)C(Cl)(Cl)S(C)(=O)=O | 104 % of control

Asked: // returns reported T/C for input CC(O)(C(=O)O)c1ccc(Cl)c(Cl)c1 (stereo not given)
Given back: 93 % of control
